assay: Cytotoxicity against human CCD-18Co cells assessed as reduction in cell viability incubated for 72 hrs by CellTiter-Glo luminescent cell viability; type: cell-based
Below, each entry is listed alongside its reported GI50 at 72 h.
Kindly provide the numeric value in µg/mL only, without the unit symbol.

Task: Find the recorded GI50 at 72 h belonging to CC(C)(C)OC(=O)N1C/C(=C\c2ccccc2)C(=O)/C(=C/c2ccccc2)C1 and report it.
Result: 12.4

====

system: COLO 205; experiment: Growth inhibition of human COLO205 cells incubated for 72 hrs by CellTiter-Glo luminescent cell viability; format: functional; settings: COLO 205, 72 h
Below, each entry is listed alongside its reported GI50.
Kindly provide the numeric value in µg/mL only, without the unit symbol.

Please review the following examples before continuing.
>  <structure-string>
CC(C)(C)OC(=O)N1C/C(=C\c2ccc(O)cc2)C(=O)/C(=C/c2ccc(O)cc2)C1

>  <GI50, µg/mL>
20.9

$$$$
>  <structure-string>
COc1cc(/C=C/C(=O)CC(=O)/C=C/c2ccc(O)c(OC)c2)ccc1O

>  <GI50, µg/mL>
12.7

$$$$

Task: Find the recorded GI50 belonging to COc1ccc(/C=C2\CN(C(=O)OC(C)(C)C)C/C(=C\c3ccc(OC)cc3OC)C2=O)c(OC)c1 and report it.
Result: 0.84

====

system: COLO 205; assay: Growth inhibition of human COLO205 cells incubated for 72 hrs by CellTiter-Glo luminescent cell viability; format: functional; conditions: COLO 205, 72 h
measurement-kind: GI50 (µg/mL)
Kindly provide the numeric value in µg/mL only, without the unit symbol.

>  <structure-string>
CC(C)(C)OC(=O)N1C/C(=C\c2ccccc2)C(=O)/C(=C/c2ccccc2)C1

>  <GI50 (µg/mL)>
34.7

$$$$

Task: Find the recorded GI50 belonging to COc1cc(/C=C2\CN(C(=O)OC(C)(C)C)C/C(=C\c3ccc(O)c(OC)c3)C2=O)ccc1O and report it.
Result: 27.4

Task: Find the recorded GI50 belonging to COc1cc(/C=C/C(=O)/C=C/c2ccc(O)c(OC)c2)ccc1O and report it.
Result: 19.4

Task: Find the recorded GI50 belonging to CC(C)(C)OC(=O)N1C/C(=C\c2ccccc2C(F)(F)F)C(=O)/C(=C/c2ccccc2C(F)(F)F)C1 and report it.
Result: 4.5

Task: Find the recorded GI50 belonging to CC(C)(C)OC(=O)N1C/C(=C\c2cccc(O)c2)C(=O)/C(=C/c2cccc(O)c2)C1 and report it.
Result: 11.7

====

experiment: Cytotoxicity against human CCD-18Co cells assessed as reduction in cell viability incubated for 72 hrs by CellTiter-Glo luminescent cell viability; assay type: cell-based
Below, each entry is listed alongside its reported log10 of GI50 at 72 h.
Recorded GI50 at 72 h (log10, µg/mL)

>  <structure-string>
CC(C)(C)OC(=O)N1C/C(=C\c2ccccc2C(F)(F)F)C(=O)/C(=C/c2ccccc2C(F)(F)F)C1

>  <log10 of GI50 at 72 h>
0.88

$$$$
>  <structure-string>
CC(C)(C)OC(=O)N1C/C(=C\c2ccc(O)cc2)C(=O)/C(=C/c2ccc(O)cc2)C1

>  <log10 of GI50 at 72 h>
0.81

$$$$
>  <structure-string>
COc1cc(/C=C/C(=O)CC(=O)/C=C/c2ccc(O)c(OC)c2)ccc1O

>  <log10 of GI50 at 72 h>
0.86

$$$$
>  <structure-string>
COc1cc(/C=C2\CN(C(=O)OC(C)(C)C)C/C(=C\c3ccc(O)c(OC)c3)C2=O)ccc1O

>  <log10 of GI50 at 72 h>
1.26

$$$$
>  <structure-string>
COc1ccc(/C=C2\CN(C(=O)OC(C)(C)C)C/C(=C\c3ccc(OC)cc3OC)C2=O)c(OC)c1

>  <log10 of GI50 at 72 h>
0.08

$$$$

Task: Find the recorded log10 of GI50 at 72 h belonging to COc1cc(/C=C/C(=O)/C=C/c2ccc(O)c(OC)c2)ccc1O and report it.
Result: 1.18

Task: Find the recorded log10 of GI50 at 72 h belonging to CC(C)(C)OC(=O)N1C/C(=C\c2cccc(O)c2)C(=O)/C(=C/c2cccc(O)c2)C1 and report it.
Result: 0.81
